B1: POU domain, class 2, transcription factor 1, residues 285 to 354; numbered along this chain, P14859 (parent)
chain: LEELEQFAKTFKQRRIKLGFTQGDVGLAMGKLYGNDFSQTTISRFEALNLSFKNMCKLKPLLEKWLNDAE

- Variants of: B1
- PROCEDURE SUMMARY: abundance fitness (aPCA) (normalised: wild type 0, dead -1); higher = more abundant; growth selection in yeast, the domain comes from the species named
- CONDITION DETAILS: Homo sapiens
PARAMETER: abundance fitness
Quick one: just the number, no unit, thanks!

Please review the following examples before continuing.
{"VARIANT NAME": "A69E", "abundance fitness": 0.016}
{"VARIANT NAME": "Q6K", "abundance fitness": 0.034}
{"VARIANT NAME": "M29Q", "abundance fitness": -0.497}
{"VARIANT NAME": "L61W", "abundance fitness": -0.038}
{"VARIANT NAME": "Q22K", "abundance fitness": 0.048}
{"VARIANT NAME": "I16T", "abundance fitness": -0.03}

Fill blank: measured abundance fitness of the variant `N54H` is ____.
0.004

Query `F52R` next
-0.001

Query `M29R` next
-0.998

Query `G34Y` next
-0.165

Query `Q6F` next
-0.059
